Target: Adrenergic receptor alpha-1 (Rattus norvegicus, UniProt P15823+P23944+P43140)
Assay: Antagonistic activity for Alpha-1 adrenergic receptor was measured as inhibition of phenylephrine-[…] contractions in isolated Sprague-Dawley rat anacoccygeal muscles
Format: functional
So basically every entry gets a class from its pA2, ranges being low-valued: < 7; mid-valued: ≥ 7 and < 8; high-valued: ≥ 8

line.notation: COc1cccc(N2CCN(CCNC(=O)c3ccco3)CC2)c1
measurement.target: Adrenergic receptor alpha-1 (Rattus norvegicus, UniProt P15823+P23944+P43140)
discrete.label: high-valued

line.notation: COc1ccc(Cl)cc1N1CCN(CCNC(=O)c2cc3ccccc3o2)CC1
measurement.target: Adrenergic receptor alpha-1 (Rattus norvegicus, UniProt P15823+P23944+P43140)
discrete.label: low-valued

line.notation: COc1ccccc1N1CCN(CCNC(=O)c2cc3ccccc3oc2=O)CC1
measurement.target: Adrenergic receptor alpha-1 (Rattus norvegicus, UniProt P15823+P23944+P43140)
discrete.label: mid-valued

line.notation: Cc1ccc(N2CCN(CCNC(=O)c3cc4ccccc4o3)CC2)c(C)c1
measurement.target: Adrenergic receptor alpha-1 (Rattus norvegicus, UniProt P15823+P23944+P43140)
discrete.label: mid-valued

line.notation: COc1ccc(N2CCN(CCNC(=O)c3cc4ccccc4oc3=O)CC2)cc1
measurement.target: Adrenergic receptor alpha-1 (Rattus norvegicus, UniProt P15823+P23944+P43140)
discrete.label: mid-valued

line.notation: COc1ccccc1N1CCN(CCNC(=O)c2ccco2)CC1
measurement.target: Adrenergic receptor alpha-1 (Rattus norvegicus, UniProt P15823+P23944+P43140)
discrete.label: high-valued

line.notation: Cc1ccc(N2CCN(CCNC(=O)c3cccnc3)CC2)c(C)c1
measurement.target: Adrenergic receptor alpha-1 (Rattus norvegicus, UniProt P15823+P23944+P43140)
discrete.label: low-valued
